# study system: UV-DDB (DDB1-DDB2 heterodimer) (UniProt Q16531;Q92466 1-1140;1-427)
# Sequence (Q16531 whole entry, chain 1 of 2): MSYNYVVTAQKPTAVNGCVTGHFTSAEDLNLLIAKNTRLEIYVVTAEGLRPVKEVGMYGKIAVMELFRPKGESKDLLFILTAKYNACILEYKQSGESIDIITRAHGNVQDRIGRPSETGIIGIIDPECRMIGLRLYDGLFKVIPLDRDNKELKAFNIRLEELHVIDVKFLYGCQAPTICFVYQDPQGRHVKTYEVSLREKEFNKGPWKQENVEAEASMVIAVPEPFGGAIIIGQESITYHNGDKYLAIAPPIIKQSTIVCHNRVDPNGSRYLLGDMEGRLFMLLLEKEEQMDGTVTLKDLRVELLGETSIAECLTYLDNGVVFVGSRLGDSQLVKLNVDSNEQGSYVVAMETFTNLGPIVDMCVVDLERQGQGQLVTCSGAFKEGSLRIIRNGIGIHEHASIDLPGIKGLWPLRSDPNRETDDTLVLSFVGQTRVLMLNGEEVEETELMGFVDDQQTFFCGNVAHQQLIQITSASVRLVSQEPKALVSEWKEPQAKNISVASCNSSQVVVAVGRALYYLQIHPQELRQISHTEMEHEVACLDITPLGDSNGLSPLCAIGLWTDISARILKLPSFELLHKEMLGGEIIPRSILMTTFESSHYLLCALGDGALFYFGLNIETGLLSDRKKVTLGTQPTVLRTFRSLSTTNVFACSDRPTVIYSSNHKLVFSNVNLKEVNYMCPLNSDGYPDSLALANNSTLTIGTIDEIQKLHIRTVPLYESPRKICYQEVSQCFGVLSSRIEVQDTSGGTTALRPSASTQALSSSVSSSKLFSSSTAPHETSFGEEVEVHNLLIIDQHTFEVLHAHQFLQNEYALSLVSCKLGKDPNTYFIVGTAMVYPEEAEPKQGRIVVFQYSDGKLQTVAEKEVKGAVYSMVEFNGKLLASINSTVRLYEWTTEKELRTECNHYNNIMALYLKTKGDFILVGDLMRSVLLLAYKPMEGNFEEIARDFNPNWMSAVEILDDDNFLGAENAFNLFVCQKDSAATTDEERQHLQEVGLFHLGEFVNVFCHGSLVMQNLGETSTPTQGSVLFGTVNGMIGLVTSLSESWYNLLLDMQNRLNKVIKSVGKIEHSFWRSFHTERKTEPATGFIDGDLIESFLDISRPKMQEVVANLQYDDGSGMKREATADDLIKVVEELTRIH
# Sequence (Q92466 whole entry, chain 2 of 2): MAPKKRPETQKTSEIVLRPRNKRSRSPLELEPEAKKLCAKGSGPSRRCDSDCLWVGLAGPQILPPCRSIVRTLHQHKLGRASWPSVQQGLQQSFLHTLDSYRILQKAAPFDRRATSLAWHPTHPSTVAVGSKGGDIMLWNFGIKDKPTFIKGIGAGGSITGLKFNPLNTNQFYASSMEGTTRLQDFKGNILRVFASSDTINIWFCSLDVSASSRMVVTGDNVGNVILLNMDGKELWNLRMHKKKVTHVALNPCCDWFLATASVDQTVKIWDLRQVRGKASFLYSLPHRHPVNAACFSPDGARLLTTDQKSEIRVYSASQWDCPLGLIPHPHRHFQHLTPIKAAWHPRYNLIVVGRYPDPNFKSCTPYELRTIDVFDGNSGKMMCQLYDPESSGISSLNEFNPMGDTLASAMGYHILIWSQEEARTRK
# protocol summary: EMSA; 1.5 mM Mg2+; EMSA: 8 nM DNA, 20 mM HEPES pH 7.5, 150 mM NaCl, 2 mM DTT (5 mM for SMUG1), 5% glycerol, 0.5 mg/ml BSA (0.5 mg/l [sic] for SMUG1), +/- 1.5 mM MgCl2, RT 20 min (30 min for displacement); 5% native gel, 1/2x TBE, 4 C
# study conditions: protein: recombinant; tags: DDB1-6xHis; DDB2-Flag; copies: 1;1; label: 3'-6FAM on top strand; blunt, U:G mispair
readout label: Kd (nM)
Kindly provide the numeric value in nM only, without the unit symbol.

Prompt line: Requested read-out: Kd. Entry: dU:dG37 (dsDNA, dU at position 22 of top strand, opposite dG) DNA 1: CCGAGTCATTCCTGCAGCGAGUCCATGGGAGTCAAAT DNA 2: ATTTGACTCCCATGGGCTCGCTGCAGGAATGACTCGG
Response line: 21
